Where do the numbers come from? From ChEMBL document CHEMBL1201862.

# Test system: NCI-H522
# method: NCI tumour cell line growth inhibition, 48 h
Calls of active or inactive are those of the source. Rule as the data show it: active = GI50 up to about 1.1 µM and inactive = higher.
Each entry below carries its recorded GI50.
measured-metric: GI50

{"compound": "CN(C)CCNC(=O)c1ccc(NCCCN(C)CCCNc2ccc(C(=O)NCCN(C)C)c3nc4ccccc4c(O)c23)c2c(O)c3ccccc3nc12", "reported-measurement": "< 0.01 µM (active)"}
{"compound": "OC1(c2cccs2)c2cccc(Cl)c2C(O)(c2cccs2)c2c(Cl)cccc21 (centres undefined)", "reported-measurement": "96.6 µM (inactive)"}
{"compound": "Cc1cc2[nH]c3c(C#N)c(-c4ccccc4)c(/C=N/c4cccc(C(F)(F)F)c4)c(=O)n3c2cc1C", "reported-measurement": "39.4 µM (inactive)"}
{"compound": "CC(=O)O[C@H]1C(=O)[C@@]2(C)C(C(OC(=O)c3ccccc3)[C@]3(O)CC(OC(=O)C(O)C(NC(=O)c4ccccc4)c4ccc(C)cc4)C(C)=C1C3(C)C)[C@]1(OC(C)=O)CO[C@@H]1C[C@@H]2O (some centres undefined)", "reported-measurement": "0.0108 µM (active)"}
{"compound": "Cc1cc(O)c(C(c2cccnc2)c2c(O)cc(C)[nH]c2=O)c(=O)[nH]1", "reported-measurement": "> 100 µM (inactive)"}
{"compound": "COc1ccc(SS(=O)(=O)c2ccc(OC)cc2)cc1", "reported-measurement": "15.3 µM (inactive)"}
{"compound": "Oc1ccc(/C=N/CC2CCCN3CCCCC23)cc1 (centres undefined)", "reported-measurement": "17.9 µM (inactive)"}
{"compound": "O=C1C(=C(C(=O)c2ccccc2)C(=O)c2ccccc2)OC(c2ccccc2)=C1C(=O)c1ccccc1", "reported-measurement": "1.22 µM (inactive)"}
{"compound": "COc1ccc2nc3c(c(NCCCN(C)C)c2c1)CCCC3", "reported-measurement": "14.9 µM (inactive)"}
